The compounds listed here are annotated with their IC50.
biological target: hSERT (Homo sapiens, UniProt P31645); assay: hSERT neurotransmitter uptake assay (3H-5-HT), Assay 2; assay type: cell-based; set-up: expressed in transfected cells; host or cells: HEK-293; details: serotonin reuptake inhibition, 3H-5-HT uptake, HEK-293 hSERT cells (values without asterisk); read-out: SERT pIC50 (converted)
Sequence (P31645 whole entry): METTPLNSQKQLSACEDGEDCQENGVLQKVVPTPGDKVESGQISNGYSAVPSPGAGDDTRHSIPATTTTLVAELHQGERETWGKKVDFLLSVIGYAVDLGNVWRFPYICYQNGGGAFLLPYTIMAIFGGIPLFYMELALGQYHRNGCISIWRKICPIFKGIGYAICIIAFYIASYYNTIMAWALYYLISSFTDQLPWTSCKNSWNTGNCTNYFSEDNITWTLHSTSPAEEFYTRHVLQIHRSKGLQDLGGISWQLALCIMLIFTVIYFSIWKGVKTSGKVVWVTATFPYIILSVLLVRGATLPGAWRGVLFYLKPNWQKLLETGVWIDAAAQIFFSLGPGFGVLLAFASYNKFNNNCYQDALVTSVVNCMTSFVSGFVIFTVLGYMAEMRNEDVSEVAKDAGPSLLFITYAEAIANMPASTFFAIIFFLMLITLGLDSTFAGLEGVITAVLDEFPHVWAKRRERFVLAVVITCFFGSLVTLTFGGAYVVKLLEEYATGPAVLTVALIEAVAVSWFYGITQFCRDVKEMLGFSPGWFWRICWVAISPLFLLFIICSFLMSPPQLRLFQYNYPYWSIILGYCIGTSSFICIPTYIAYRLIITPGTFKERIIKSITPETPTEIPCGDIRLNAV

The examples below pair each entry with its known result.
CC[C@H](Oc1cc(F)c(OC)c(F)c1)[C@H]1CCNC1 = ≤ 100 nM
CC(C)CC(Oc1cccc(Cl)c1Cl)C1CCNC1 (centres unmarked) = ≤ 10 nM
CC[C@H](Oc1ccc(F)c(OC)c1F)[C@H]1CCNC1 = ≤ 100 nM
CC(C)[C@H](Oc1ccc(Cl)c(Cl)c1F)[C@H]1CCNC1 = ≤ 10 nM
CC(C)C[C@H](Oc1cccc(F)c1Cl)[C@H]1CCNC1 = ≤ 10 nM
CC(C)CC(Oc1ccc(Cl)c(F)c1)C1CCNC1 (centres unmarked) = ≤ 10 nM

Item under review: C#CC(Oc1cccc(Cl)c1Cl)[C@H]1CCNC1 (some centres unmarked) . Reported IC50? ≤ 100 nM

Param item: `Fc1cc(O[C@H](C2CC2)[C@H]2CCNC2)ccc1Cl` ≤ 10 nM

Further, for `CC[C@H](Oc1cccc(Cl)c1)[C@H]1CCNC1` ? ≤ 100 nM

Same read-out for `CC[C@H](Oc1ccc(F)c(Cl)c1)[C@H]1CCNC1` ? ≤ 100 nM

Next compound: `CC[C@H](Oc1ccc(Cl)c(Cl)c1)[C@H]1CCNC1` ≤ 10 nM

Same question, `CCC[C@@H](Oc1cccc(C)c1C)[C@@H]1CCNC1` this time ≤ 10 nM

Consider next the compound `CC(C)[C@H](Oc1cccc2ccccc12)[C@H]1CCNC1` in the same way. ≤ 10 nM

Next up: `CC[C@H](Oc1c(C)cc(Cl)cc1Cl)[C@H]1CCNC1` ≤ 100 nM

Next compound: `CC[C@H](Oc1c(F)cc(F)cc1F)[C@H]1CCNC1` ≤ 100 nM

Input `CC(C)[C@H](Oc1c(F)ccc(Cl)c1Cl)[C@H]1CCNC1` ≤ 10 nM

Another: `CC[C@H](Oc1cc(Cl)cc(Cl)c1)[C@H]1CCNC1` ≤ 100 nM

And for CC(C)CC(Oc1ccc(C(F)(F)F)cc1)C1CCNC1 (centres unmarked) ? ≤ 10 nM

Likewise for `CCC[C@H](Oc1cccc2ccccc12)[C@H]1CCNC1` ? ≤ 10 nM

Another compound: CC(C)CC(Oc1c(F)ccc(Cl)c1Cl)C1CCNC1 (centres unmarked) ≤ 10 nM

====

Below, each of the compounds is paired with its reported Ki value.
molecular target: UniProt P23975
Sequence (P23975 whole entry): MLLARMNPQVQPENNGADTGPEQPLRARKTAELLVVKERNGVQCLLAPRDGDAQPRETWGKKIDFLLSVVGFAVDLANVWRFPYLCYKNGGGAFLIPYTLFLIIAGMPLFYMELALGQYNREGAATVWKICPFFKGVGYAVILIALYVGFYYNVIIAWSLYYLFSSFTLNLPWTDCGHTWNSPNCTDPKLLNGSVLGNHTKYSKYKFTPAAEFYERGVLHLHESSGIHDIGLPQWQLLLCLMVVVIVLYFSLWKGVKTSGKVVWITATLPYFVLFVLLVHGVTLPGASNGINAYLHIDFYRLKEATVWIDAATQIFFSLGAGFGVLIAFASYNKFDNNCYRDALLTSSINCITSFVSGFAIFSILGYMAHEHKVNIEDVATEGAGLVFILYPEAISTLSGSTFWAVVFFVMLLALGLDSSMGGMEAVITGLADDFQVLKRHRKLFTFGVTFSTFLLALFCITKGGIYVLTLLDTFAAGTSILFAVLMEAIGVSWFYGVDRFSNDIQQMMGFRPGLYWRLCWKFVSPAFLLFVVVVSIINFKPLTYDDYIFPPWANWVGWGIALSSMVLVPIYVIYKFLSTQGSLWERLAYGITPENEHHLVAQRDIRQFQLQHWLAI

Study these solved cases before continuing.
Clc1ccc(Cl)c(O[C@@H](C2CC2)[C@H]2CCNC2)c1Cl = ≤ 10 nM
CC[C@H](Oc1cccc(Cl)c1C(F)(F)F)[C@H]1CCNC1 = ≤ 10 nM
Fc1cc(Cl)cc(O[C@@H](C2CC2)[C@H]2CCNC2)c1 = ≤ 10 nM
CC(C)C[C@@H](Oc1cccc(Cl)c1F)[C@H]1CCNC1 = ≤ 10 nM

Proceed to the following item.
Requested field: Ki. Item: `Clc1cccc(O[C@H](C2CC2)[C@H]2CCNC2)c1Cl` ≤ 10 nM

====

target: hSERT (Homo sapiens, UniProt P31645); assay: hSERT neurotransmitter uptake assay (3H-5-HT), Assay 2; type: cell-based; set-up: expressed in transfected cells; host or cells: HEK-293; settings: serotonin reuptake inhibition, 3H-5-HT uptake, HEK-293 hSERT cells (values without asterisk); read-out: SERT pIC50 (converted)
Measurement Kind: IC50

Use these answered entries as a reference point.
CC(C)CC(Oc1cccc(C(F)(F)F)c1F)C1CCNC1 (centres unmarked) = ≤ 100 nM
CC(C)C[C@H](Oc1cccc(Cl)c1C(F)(F)F)[C@H]1CCNC1 = ≤ 10 nM
CC[C@H](Oc1c(C)cccc1Cl)[C@H]1CCNC1 = ≤ 100 nM
Cc1ccc(O[C@@H](C2CC2)[C@H]2CCNC2)c(Br)c1 = ≤ 10 nM

Now let's try a different one.
// query IC50 value for entry `CC(C)C[C@@H](Oc1cccc(F)c1Cl)[C@H]1CCNC1` ≤ 10 nM

From: patent US7994209B2
